Molecular target: T1, CMG2-488 (human CMG2 vWA domain 40-217, [change], [change], AlexaFluor 488) (human, UniProt P58335 40-217)
T1 chain: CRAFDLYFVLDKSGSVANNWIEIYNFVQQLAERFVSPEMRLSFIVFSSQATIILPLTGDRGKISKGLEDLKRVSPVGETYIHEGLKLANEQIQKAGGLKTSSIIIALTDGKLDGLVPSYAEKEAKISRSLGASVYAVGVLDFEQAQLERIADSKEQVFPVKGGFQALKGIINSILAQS
Assay: FRET or BRET
pIC50: −log10 of the molar value.
Measurement Kind: pIC50

# Binder, Measurement Kind, Reading
records = [
    ("VSIGYLLVKHSQTDQ [Peptide U12 (canstatin-derived 15-mer)]", "pIC50", 4.46),
    ("PAIAIAVHSQDVSIP [Peptide S16 (canstatin-derived 15-mer)]", "pIC50", 5.57),
]
